Would you kindly list viability, T/C for each of these compounds?
system: 422866-222-R5-J1-PDC spheroids with HUVEC/MSC, viability; test: Anticancer human tumor 422866-222-R5-J1-PDC patient-derived pancreatic adenocarcinoma cell line growth inhibition [GQUAD]; conditions: second compound 3.16 µM; first compound 10 µM; stronger effect = lower value;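 note: spheroids exposed to compounds for seven days before reading; percent viability relative to DMSO vehicle control taken as 100%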
Give just the numeric value; % need not be written.

viability, T/C for O=c1[nH]cc(F)c(=O)[nH]1 + Cc1cnc(CNC(=O)c2c(=O)c3ccc(N4CCCN(C)CC4)nc3n3c2sc2ccccc23)cn1 is 82.8

In plain terms, Nc1ccn(C2OC(CO)C(O)C2(F)F)c(=O)n1 (stereo not given) + Cc1cnc(CNC(=O)c2c(=O)c3ccc(N4CCCN(C)CC4)nc3n3c2sc2ccccc23)cn1 has a documented viability, T/C of 58.4

Looking up COc1ccc([C@@H](O)c2cc(-c3ncnc4cc(N5CCOCC5)ccc34)c(F)cc2Cl)nn1 + CN(C)c1ccc(Nc2c3ccc(NC(=O)CCN4CCCC4)cc3nc3cc(NC(=O)CCN4CCCC4)ccc23)cc1 , I found its viability, T/C recorded as 29.9

The compound listed as O=C(NO)c1cnc(N2CCN(S(=O)(=O)c3ccc4ccccc4c3)CC2)nc1 + CN(C)c1ccc(Nc2c3ccc(NC(=O)CCN4CCCC4)cc3nc3cc(NC(=O)CCN4CCCC4)ccc23)cc1 has a reported viability, T/C of 1.79

Input COc1cccc2c1C(=O)c1c(O)c3c(c(O)c1C2=O)CC(O)(C(=O)CO)CC3OC1CC(N)C(O)C(C)O1 (stereo not given) + Cc1cnc(CNC(=O)c2c(=O)c3ccc(N4CCCN(C)CC4)nc3n3c2sc2ccccc23)cn1 . Output viability, T/C: 34.2

The reported measurements were obtained from PubChem BioAssay AID2060511.
